As shown below, each of these sequences has a reported IC50 value.
Target: DRB10404 (DR4w14) (Homo sapiens, UniProt P01903+P01911, A100R/A169T/F76Y/I96L/K127E/L162R/M171V/N62H/P40V/Q125Y/R42H/S133A/S149N/S66Y/V209L/W38E)
Construct: used as sources of human HLA class II molecules; endogenous in cells; host or cells: BIN40 (EBV-transformed homozygous B cell line)
Assay: Class II peptide-binding assay, DR4w14;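 note: unlabeled peptides compete with a radiolabeled probe for binding to affinity-purified HLA-DR, neutral pH, class II amount titrated to bind a small fraction of label, IC50 approximates Kd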
Settings: read-out: DR4w14 nM; Table VIII, In IC50 Format
Ends that are not written are not given here.
Report as a plain number; the unit µM is understood.

DTVKLMYKGQPMTFRLLLV [Peptide 866.01]    10

Now consider a different sequence.
Q. Provide measured IC50 value, entry: EALVRQGLAKVAYVYKPNN [NASE 101-]
A. 1.14

====

Target: DRB1*1101 (DR5w11) (Homo sapiens, UniProt P01903+P01911, A100R/A169T/A87E/I96F/K41T/L162R/M171V/P40S/Q125H/Q178H/Q39Y/Q99D/R42S/S66Y/T262R/V115G/W38E)
Construct: used as sources of human HLA class II molecules; endogenous in cells; host or cells: SWEIG (EBV-transformed homozygous B cell line)
Sequence (P01903 26-254, other chains not shown): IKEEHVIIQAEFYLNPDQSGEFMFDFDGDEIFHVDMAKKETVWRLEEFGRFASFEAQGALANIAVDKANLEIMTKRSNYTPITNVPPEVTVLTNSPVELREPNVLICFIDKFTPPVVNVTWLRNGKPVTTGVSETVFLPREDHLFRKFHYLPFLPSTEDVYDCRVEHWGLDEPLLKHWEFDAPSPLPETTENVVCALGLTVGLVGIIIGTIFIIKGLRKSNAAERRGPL
Assay: Class II peptide-binding assay, DR5w11;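 note: competition by unlabeled test peptide against iodinated probe peptide binding to affinity-purified HLA-DR, class II amount titrated beforehand, half-maximal inhibitory concentration read as approximate Kd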
Details: read-out: DR5w11 nM (In IC50 Format); purified HLA DR5w11
pIC50: −log10 of the molar value. Ends that are not written are not given here.
The label depends only on pIC50: 1 (yes) if it is at least 7, 0 (no) if it is smaller.

Consider the worked cases shown below.
YAKFQSQTTLKAKT-NH2 [Peptide 717.40]    1 (yes)
YARFNSQTTLKAKT-NH2 [Peptide 717.44]    1 (yes)
YARFQAQTTLKAKT-NH2 [Peptide 717.55]    1 (yes)
LVEALYLVSGERGFFYTPKT [Peptide 734.03]    0 (no)
YARFQSQTVLKAKT-NH2 [Peptide 717.32]    1 (yes)
LSGSHLVEALYLVSGERGFF [Peptide 734.02]    0 (no)
YERFQSQTTLKAKT-NH2 [Peptide 717.39]    1 (yes)
CPIAIMSALAMVYLGAKDS [Peptide 705.04]    0 (no)
YAEFQAEKTLKAAS-NH2 [Peptide 717.05]    1 (yes)
YARFQSQTYLKAKT-NH2 [Peptide 717.33]    0 (no)

Q. State whether the measured pIC50 reaches 7, counting equality as reaching it, for YARFQSATTLKAKT-NH2 [Peptide 717.54]
A. 1 (yes)

Q. Entry RLANSLVHSSNNFGAILSS [Peptide 735.03] : is its pIC50 no less than 7?
A. 0 (no)

====

Biological target: DRB1*1501 (DR2w2b) (Homo sapiens, UniProt P01903+P01911)
Construct: expressed in transfected cells; host or cells: L466.1 transfected fibroblasts
Test: Class II peptide-binding assay, DR2w2b (DR2w2B1)
Conditions: Table V A) Non Predictions; read-out: Binding Capacity DR2w2b
Ends that are not written are not given here.
READOUT_NAME: IC50 (nM)
API: value field is a number in nM; no unit string.

LFHYYFLSEKAPGSTV [Peptide 1136.04]    1260

Q. Read the entry GPPTALRSFGFAFGYM [Peptide 1136.29] and write its reported IC50.
A. 1.1
